test_target: BACE2 (Homo sapiens)
Construct: recombinant BACE2 protein in a final concentration of 0.4 μg/ml
method_summary: BACE2 biochemical FRET based assay
details: recombinant BACE2, 450 minutes at room temperature, pH 5.0; read-out: Biochemical FRET based assay pIC50 (converted)
This section presents compounds with their documented IC50 values.

CC1(C#N)CC2C(C(F)(F)F)OCC2(c2cc(NC(=O)c3cnc(-n4cncn4)cn3)ccc2F)N=C1N (single isomer, unassigned) [34b] :: > 10 µM

Task: For the compound CC1OCC2(c3cc(NC(=O)c4cnc(OCF)cn4)cc(F)c3F)N=C(N)C(C)(C#N)CC12 (single isomer, unassigned) [31d] , report IC50.
Result: > 10 µM

Task: For the compound CC1OCC2(c3cc(NC(=O)c4cnc(OCF)cn4)cc(F)c3F)N=C(N)C(C)(C#N)CC12 (single isomer, unassigned) [31b] , report IC50.
Result: > 10 µM

* * *

This section presents compounds with their documented IC50 values.
Tested on: Abeta 1-42 produced and secreted into the medium of human neuroblastoma SKNBE2 cells
method_summary: Cellular αLisa assay in SKNBE2 cells
Assay type: cell-based
details: Homo sapiens, SKNBE2, 18 h, human neuroblastoma SKNBE2 cells expressing hAPP695, 18 hours incubation, read-out: Cellular αLisa assay in SKNBE2 cells Abeta 42 pIC50 (converted)
Number in nM, nothing else.

Consider the worked cases shown below.
C[C@]1(C#N)C[C@@H]2[C@@H](CF)OC[C@]2(c2cc(NC(=O)c3ccc(C#N)cn3)ccc2F)N=C1N [24b] :: 31.6
CC1(C#N)CC2C(C(C)(F)F)OCC2(c2cc(NC(=O)c3cnc(OC(F)F)cn3)ccc2F)N=C1N (stereo not drawn) :: 3.8

Task: For the compound C[C@@]1(C#N)C[C@@H]2[C@@H](C(F)F)OC[C@]2(c2cc(NC(=O)c3ccc(C#N)cn3)ccc2F)N=C1N [27a] , report IC50.
Result: 6.31

* * *

This section presents compounds with their documented Biochemical FRET based assay pIC50 values.
test_target: BACE2 (Homo sapiens)
Construct: recombinant BACE2 protein in a final concentration of 0.4 μg/ml
Sequence (Q9Y5Z0 63-518): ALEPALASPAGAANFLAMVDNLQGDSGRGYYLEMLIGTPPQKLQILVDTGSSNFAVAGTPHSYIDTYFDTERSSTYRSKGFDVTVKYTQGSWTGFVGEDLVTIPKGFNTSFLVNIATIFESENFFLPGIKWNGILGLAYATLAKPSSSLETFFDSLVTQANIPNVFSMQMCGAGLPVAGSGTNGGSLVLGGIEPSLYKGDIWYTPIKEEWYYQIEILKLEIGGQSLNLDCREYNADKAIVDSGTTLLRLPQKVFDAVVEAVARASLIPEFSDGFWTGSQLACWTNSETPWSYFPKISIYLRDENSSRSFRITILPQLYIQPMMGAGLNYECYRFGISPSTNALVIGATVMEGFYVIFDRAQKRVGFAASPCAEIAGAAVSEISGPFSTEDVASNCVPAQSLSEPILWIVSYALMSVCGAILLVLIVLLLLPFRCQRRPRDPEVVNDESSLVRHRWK
method_summary: BACE2 biochemical FRET based assay
details: recombinant BACE2, 450 minutes at room temperature, pH 5.0
# respond with the number and nothing more

Consider the worked cases shown below.
C[C@H]1OC[C@]2(c3cc(NC(=O)c4cnc(OCF)cn4)ccc3F)N=C(N)[C@](C)(C#N)C[C@H]12 (single isomer, unassigned) :: 7.19
COc1cnc(C(=O)Nc2ccc(F)c([C@]34CO[C@H](C)[C@H]3C[C@](C)(C#N)C(N)=N4)c2)cn1 :: 6.17
C[C@H]1OC[C@]2(c3cc(NC(=O)c4ccc(C#N)cn4)ccc3F)N=C(N)[C@](C)(C#N)C[C@H]12 :: 7.84
C[C@@]1(C#N)C[C@@H]2[C@@H](C(F)(F)F)OC[C@]2(c2cc(NC(=O)c3ncc(Cl)cn3)ccc2F)N=C1N :: 8.46
C[C@H]1OC[C@]2(c3cc(NC(=O)c4ccc(F)cn4)ccc3F)N=C(N)[C@](C)(C#N)C[C@H]12 (single isomer, unassigned) [10b] :: 8.28
C[C@]1(C#N)C[C@@H]2[C@@H](C(F)(F)F)OC[C@]2(c2cc(NC(=O)c3ccc(F)cn3)ccc2F)N=C1N :: 7.35
N#Cc1ccc(C(=O)Nc2ccc(F)c([C@]34CO[C@H](C(F)(F)F)[C@H]3CCC(N)=N4)c2)nc1 [11a] :: 6.88
C[C@@]1(C#N)C[C@@H]2[C@@H](C(F)(F)F)OC[C@]2(c2cc(NC(=O)c3ccc(F)cn3)ccc2F)N=C1N :: 8.3

With those in mind, consider the next compound.
Task: For the compound C[C@]1(C#N)C[C@@H]2[C@@H](C(F)(F)F)OC[C@]2(c2cc(NC(=O)c3ccc(C#N)cn3)ccc2F)N=C1N , report Biochemical FRET based assay pIC50.
Result: 6.88

Each recorded value in this set is attributed to patent US20200062773A1.
